Data origin, for the record: the supplement of paper PMC10065799

molecular target: SHP2-C SH2; test: SH2 binding enrichment of the phosphorylated peptide, bacterial display (enrichment ratio); higher = better substrate or ligand; peptides without Tyr show the background;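 also: peptide library displayed on the E. coli surface as eCPX fusions, selected cells deep-sequenced, score is each peptide's frequency after selection divided by its frequency in the input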
measuredQuantity: SH2 binding enrichment

- KMKGDYFRSLA [YWHAG_Y130_Y133S_YF]: 0.825
- SLNEEYAKNKT [MSH2_Y563_T564A]: 0.759
- AAAAVYTFLPD [MYORG_Y36_M35V]: 0.79
- CRWKRYQCSHD [GDPD5_Y30_R32C]: 0.583
- SVVVRYEPPEV [TP53_Y220_P219R]: 0.775

[P] SVMAEYGLFGA [VSX2_Y219_YF]
[Q] HMRLRYLAAEE [CEP120_Y884_Q879H]
Prompt: Input pair: P , Q . Output: entry with lower SH2 binding enrichment. Lab note: record the label of whichever item you select.
Response: P

###

test system: c-Src; test: phosphorylation enrichment, bacterial display (enrichment ratio); higher = better substrate or ligand; peptides without Tyr show the background
measuredQuantity: phosphorylation enrichment
// return just the number, without any unit appended

Record NTGYYYDLYGG [PTPN11_Y63_D61Y] / c-Src, phosphorylation enrichment recorded as 4.67

###

target: FGFR1 (UniProt P11362); experiment: phosphorylation enrichment, bacterial display (enrichment ratio); higher = better substrate or ligand; peptides without Tyr show the background
Sequence (P11362 whole entry, looked up): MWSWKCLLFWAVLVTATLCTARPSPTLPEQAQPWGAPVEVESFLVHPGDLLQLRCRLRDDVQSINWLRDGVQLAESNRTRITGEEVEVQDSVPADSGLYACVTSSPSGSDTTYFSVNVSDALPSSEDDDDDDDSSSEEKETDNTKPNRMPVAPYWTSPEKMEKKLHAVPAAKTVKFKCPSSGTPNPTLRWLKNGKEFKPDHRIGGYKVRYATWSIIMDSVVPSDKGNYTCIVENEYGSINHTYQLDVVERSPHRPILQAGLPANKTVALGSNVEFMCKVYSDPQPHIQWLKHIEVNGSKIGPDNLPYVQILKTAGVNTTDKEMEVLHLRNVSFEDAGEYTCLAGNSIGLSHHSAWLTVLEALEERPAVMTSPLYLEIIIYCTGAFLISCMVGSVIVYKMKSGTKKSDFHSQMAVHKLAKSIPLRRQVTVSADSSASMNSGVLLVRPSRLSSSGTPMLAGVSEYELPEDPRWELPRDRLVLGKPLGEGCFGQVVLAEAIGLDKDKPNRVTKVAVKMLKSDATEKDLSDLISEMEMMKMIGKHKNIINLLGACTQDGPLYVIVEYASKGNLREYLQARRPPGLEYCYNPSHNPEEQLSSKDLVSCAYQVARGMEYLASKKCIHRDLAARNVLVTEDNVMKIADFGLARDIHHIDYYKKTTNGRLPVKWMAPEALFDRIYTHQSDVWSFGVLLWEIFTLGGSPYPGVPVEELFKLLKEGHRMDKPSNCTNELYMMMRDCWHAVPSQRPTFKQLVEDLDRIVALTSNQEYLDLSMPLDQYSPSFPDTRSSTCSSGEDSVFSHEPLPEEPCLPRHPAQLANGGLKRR
measuredQuantity: phosphorylation enrichment
// return just the number, without any unit appended

Known results for sequences:
- FQEKSYIKGTS [LCTL_Y331_L326F]: 0.423
- DDERGYRRVRS [GIGYF2_Y268]: 0.386
- YIATQYSLCPR [LBR_Y166_R169C]: 1.73
- EEALHYLTRVE [SET_Y119]: 0.47
- VVTGPYEKPSL [KIR3DS1_Y221_L220P]: 0.581

Data point: IGRGSYAKVLL [PRKCZ_Y263] ; phosphorylation enrichment = 0.348

Data point: VPHECYAKVFD [ALB_Y394_D389V] ; phosphorylation enrichment = 0.619

Data point: ADKSAYLMGPN [MYH7_Y386_L390P] ; phosphorylation enrichment = 0.473

Data point: FVSAAYVKKLD [SPTAN1_Y1020_P1017S] ; phosphorylation enrichment = 0.421

Data point: EPTPSYEVGQR [TSC2_Y1788_G1787S] ; phosphorylation enrichment = 0.462

###

biological target: EPHB2 (UniProt P29323); assay: phosphorylation enrichment, bacterial display (enrichment ratio); higher = better substrate or ligand; peptides without Tyr show the background
Sequence (P29323 whole entry, looked up): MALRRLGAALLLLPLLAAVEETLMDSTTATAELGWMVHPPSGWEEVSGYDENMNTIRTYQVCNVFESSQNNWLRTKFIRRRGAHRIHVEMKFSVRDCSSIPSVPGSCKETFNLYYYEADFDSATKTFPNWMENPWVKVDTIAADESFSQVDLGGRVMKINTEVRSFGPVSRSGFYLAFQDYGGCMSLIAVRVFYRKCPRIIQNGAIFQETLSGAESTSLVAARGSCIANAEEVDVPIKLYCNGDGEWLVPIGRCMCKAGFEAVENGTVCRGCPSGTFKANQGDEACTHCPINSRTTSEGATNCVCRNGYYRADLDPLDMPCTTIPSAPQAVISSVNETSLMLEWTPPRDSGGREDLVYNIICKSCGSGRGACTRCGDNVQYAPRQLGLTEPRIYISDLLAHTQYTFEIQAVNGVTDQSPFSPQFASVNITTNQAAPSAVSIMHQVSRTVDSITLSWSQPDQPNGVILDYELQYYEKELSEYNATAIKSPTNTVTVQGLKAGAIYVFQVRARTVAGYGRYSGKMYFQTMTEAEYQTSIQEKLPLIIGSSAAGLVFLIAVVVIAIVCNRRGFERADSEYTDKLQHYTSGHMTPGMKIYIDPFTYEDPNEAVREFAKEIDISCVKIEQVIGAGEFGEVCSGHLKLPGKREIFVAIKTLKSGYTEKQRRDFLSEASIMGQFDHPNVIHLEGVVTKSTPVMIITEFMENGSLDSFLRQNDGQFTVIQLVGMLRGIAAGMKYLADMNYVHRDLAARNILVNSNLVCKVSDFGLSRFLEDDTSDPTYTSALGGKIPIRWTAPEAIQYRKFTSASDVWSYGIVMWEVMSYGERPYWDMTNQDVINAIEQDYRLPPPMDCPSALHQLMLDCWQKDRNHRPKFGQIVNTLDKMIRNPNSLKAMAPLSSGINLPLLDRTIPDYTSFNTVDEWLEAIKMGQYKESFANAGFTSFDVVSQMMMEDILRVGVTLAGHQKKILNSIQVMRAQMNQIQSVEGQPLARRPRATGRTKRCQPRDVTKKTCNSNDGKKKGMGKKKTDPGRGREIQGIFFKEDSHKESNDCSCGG
Each entry below carries its recorded phosphorylation enrichment.
// return just the number, without any unit appended

Record TFVVLYDAELT [ERCC4_Y581_R576T_YF] / EPHB2 (UniProt P29323), phosphorylation enrichment recorded as 1.03

Record LNECHYGALIG [BPGM_Y92_R90C] / EPHB2 (UniProt P29323), phosphorylation enrichment recorded as 0.878

Record NGSKGYAYVHF [PABPC5_Y147] / EPHB2 (UniProt P29323), phosphorylation enrichment recorded as 0.61

Record SGFESYGSSSF [RPA2_Y9_YF] / EPHB2 (UniProt P29323), phosphorylation enrichment recorded as 0.432

###

target: Fyn (UniProt P06241); test: phosphorylation enrichment, bacterial display (enrichment ratio); higher = better substrate or ligand; peptides without Tyr show the background
Sequence (P06241 whole entry, looked up): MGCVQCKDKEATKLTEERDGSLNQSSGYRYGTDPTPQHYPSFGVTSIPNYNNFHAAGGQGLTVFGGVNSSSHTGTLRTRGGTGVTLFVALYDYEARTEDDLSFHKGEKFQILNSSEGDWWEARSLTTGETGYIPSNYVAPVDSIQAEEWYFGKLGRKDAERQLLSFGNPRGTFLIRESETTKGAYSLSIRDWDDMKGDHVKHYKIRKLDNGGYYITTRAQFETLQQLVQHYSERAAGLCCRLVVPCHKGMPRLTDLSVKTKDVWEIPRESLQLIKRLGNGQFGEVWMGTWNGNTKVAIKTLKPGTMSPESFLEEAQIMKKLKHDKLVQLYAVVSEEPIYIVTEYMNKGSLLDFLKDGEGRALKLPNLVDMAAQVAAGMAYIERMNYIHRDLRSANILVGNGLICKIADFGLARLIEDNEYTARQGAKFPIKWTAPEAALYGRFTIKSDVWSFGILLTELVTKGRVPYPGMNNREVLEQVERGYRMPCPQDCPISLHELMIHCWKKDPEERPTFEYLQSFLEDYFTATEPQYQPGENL
Each entry below carries its recorded phosphorylation enrichment.
// return just the number, without any unit appended

Known results for sequences:
- FSLPAYMDRRD [COX4I1_Y38]: 0.355
- RAFRRYLLKQK [SCN2A_Y1919_YF]: 0.696
- FQEKSYIKGTS [LCTL_Y331_L326F]: 0.364
- QPGTDYKIYLY [FN1_Y1970]: 0.715
- LERFIYNPEEF [HLA-DPB1_Y59_R61P_YF]: 1.75
- EEALFYLTRVE [SET_Y119_H118Y_YF]: 0.58
- REVVNYVQKRS [RMI1_Y450_N455S]: 0.581
- NLNGKYYKPRA [ANGPTL3_Y417_N418Y]: 0.241
- TAPFNYSFIFK [RAB14_Y8_YF]: 0.493
- CTTIHYNFMCH [TP53_Y234_N239H_YF]: 0.533

Data point: EPTPSYEVGQR [TSC2_Y1788_G1787S] ; phosphorylation enrichment = 0.427

Data point: DKANRYFSPNV [PTEN_Y336_F341V] ; phosphorylation enrichment = 0.378

Data point: HQKKPYCHAHN [NRAP_Y53] ; phosphorylation enrichment = 0.828

Data point: PASWTYVRWFD [PTDSS1_Y274] ; phosphorylation enrichment = 0.669

Data point: VLNHAYENLTR [SYNE2_Y3255_D3253H] ; phosphorylation enrichment = 0.33

Data point: CHRQLYHKCTH [F12_Y58_Y53C] ; phosphorylation enrichment = 0.402

Data point: VVTGPYEKPSL [KIR3DS1_Y221_L220P] ; phosphorylation enrichment = 0.473

Data point: CQAHGYFCQLI [STK11_Y156] ; phosphorylation enrichment = 0.405
